# run_description: recombinant barcode read abundance after kanamycin selection (control-corrected) (log10(CPM+1)); higher = more efficient recombination; sequences stand for … in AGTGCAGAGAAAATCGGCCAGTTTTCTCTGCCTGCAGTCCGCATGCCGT…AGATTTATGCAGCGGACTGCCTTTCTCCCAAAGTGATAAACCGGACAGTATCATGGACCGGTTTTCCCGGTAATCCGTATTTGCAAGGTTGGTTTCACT; site = the 11-nt target
Measured recombinant barcode read abundance (log10) accompanies every entry in the list below.
Answer with the value's number alone.

Example cases with answers are listed next.
GAAGGGCCTTGGGTTCTAACCTGTTGCCT (site GAAGAGCCTAG) ... 0.202
TCAAAGCCTTGGGTTCTAACCTGTTGCTG (site TCACAGCCTCA) ... 0.204

Entry CTCGACACTTGGGTTCTAACCTGTTGCTG (site CTCTACACTCA) has what recombinant barcode read abundance (log10)?
0.191

Entry CTAAGGGCTTGGGTTCTAACCTGTTGCCA (site CTAAGGGCTTG) has what recombinant barcode read abundance (log10)?
0.591

Entry CCGTCTACTTGGGTTCTAACCTGTTGCTA (site CCGTCTACTGA) has what recombinant barcode read abundance (log10)?
0.125

---

# run_description: recombinant UMI read abundance after kanamycin selection (control-corrected) (log10(CPM+1)); higher = more efficient recombination; extreme values may be limits of the assay; sequences stand for … in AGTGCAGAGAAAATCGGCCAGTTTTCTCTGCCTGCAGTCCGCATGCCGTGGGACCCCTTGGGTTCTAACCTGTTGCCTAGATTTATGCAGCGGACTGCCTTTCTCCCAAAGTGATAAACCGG…AGGTTGGTTTCACT; site = the 11-nt donor
value_kind: recombinant UMI read abundance (log10)

Example cases with answers are listed next.
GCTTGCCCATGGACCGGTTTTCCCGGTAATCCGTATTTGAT (site GCTTGCCCTAC) ... 0.00771
CGACAATCATGGACCGGTTTTCCCGGTAATCCGTATTTGCT (site CGATCATCTAG) ... 0
CTGCTACCATGGACCGGTTTTCCCGGTAATCCGTATTTGCG (site CTGCTACCTTG) ... 0
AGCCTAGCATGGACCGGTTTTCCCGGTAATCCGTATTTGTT (site ACCCTAGCTAA) ... 0.0311
GTGCTCACATGGACCGGTTTTCCCGGTAATCCGTATTTGAT (site GAGCTCACTAT) ... 0.557
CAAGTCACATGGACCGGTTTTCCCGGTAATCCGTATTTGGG (site CAAGTCACTGC) ... 0
GAAGATACATGGACCGGTTTTCCCGGTAATCCGTATTTGTT (site GAAGATCCTAA) ... 0.00569
GAGCTAGCATGGACCGGTTTTCCCGGTAATCCGTATTTGAA (site GAGCTAGCTTT) ... 2.14

Entry TCAGAGTCATGGACCGGTTTTCCCGGTAATCCGTATTTGCG (site TCAGAGGCTCG) has what recombinant UMI read abundance (log10)?
0.0319

Entry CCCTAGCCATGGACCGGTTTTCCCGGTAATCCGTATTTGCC (site CCCTGGCCTGG) has what recombinant UMI read abundance (log10)?
0

Entry AGTGATCCATGGACCGGTTTTCCCGGTAATCCGTATTTGGT (site AGTGATCCTAC) has what recombinant UMI read abundance (log10)?
0.0964

Entry CCTAATTCATGGACCGGTTTTCCCGGTAATCCGTATTTGGC (site CCTAATCCTGC) has what recombinant UMI read abundance (log10)?
0

Entry TATCCTTCATGGACCGGTTTTCCCGGTAATCCGTATTTGGT (site TATCCTTCTAC) has what recombinant UMI read abundance (log10)?
0.31

---

# run_description: recombinant barcode read abundance after kanamycin selection (control-corrected) (log10(CPM+1)); higher = more efficient recombination; sequences stand for … in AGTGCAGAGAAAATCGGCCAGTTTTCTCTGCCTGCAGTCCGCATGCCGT…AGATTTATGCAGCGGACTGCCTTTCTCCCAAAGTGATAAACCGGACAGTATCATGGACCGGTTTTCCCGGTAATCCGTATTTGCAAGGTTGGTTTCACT; site = the 11-nt target
Label not met if recombinant barcode read abundance (log10) falls below 0.1; label met in every other case.

Some solved entries appear below for comparison.
CTGGCCACTTGGGTTCTAACCTGTTGCCT (site CAGGCCACTAG) ... met
CATCCGTCTTGGGTTCTAACCTGTTGCTT (site CATCCCTCTAA) ... not met
TGGAGTCCTTGGGTTCTAACCTGTTGCCT (site TGGAGTCCTAG) ... met
ACATCTCCTTGGGTTCTAACCTGTTGCCT (site TCATCTCCTAG) ... not met
GAGTCGCCTTGGGTTCTAACCTGTTGCCT (site GAGTCGTCTAG) ... met
AAACGCTCTTGGGTTCTAACCTGTTGCCT (site AAACGCTCTAG) ... met
CTAGCGTCTTGGGTTCTAACCTGTTGCTT (site CTAGCGTCTAA) ... met
CACTCTCCTTGGGTTCTAACCTGTTGCCT (site CACTCTCCTAG) ... met

Given the entry ATGTCTGCTTGGGTTCTAACCTGTTGCCT (site GATGGACCTTA) , answer whether its recombinant barcode read abundance (log10) meets or surpasses 0.1.
not met

Given the entry ACAAGGCCTTGGGTTCTAACCTGTTGCCT (site TCAAGGCCTAG) , answer whether its recombinant barcode read abundance (log10) meets or surpasses 0.1.
not met

Given the entry ATCGGATCTTGGGTTCTAACCTGTTGCCT (site ATCGGAACTAG) , answer whether its recombinant barcode read abundance (log10) meets or surpasses 0.1.
met

Given the entry GGTGCTCCTTGGGTTCTAACCTGTTGCTT (site ATTGCTCCTAA) , answer whether its recombinant barcode read abundance (log10) meets or surpasses 0.1.
met

Given the entry GCCAACCCTTGGGTTCTAACCTGTTGCTT (site GCCAACCCTAC) , answer whether its recombinant barcode read abundance (log10) meets or surpasses 0.1.
not met

---

# run_description: recombinant barcode read abundance after kanamycin selection (control-corrected) (log10(CPM+1)); higher = more efficient recombination; sequences stand for … in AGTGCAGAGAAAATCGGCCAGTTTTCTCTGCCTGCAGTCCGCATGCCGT…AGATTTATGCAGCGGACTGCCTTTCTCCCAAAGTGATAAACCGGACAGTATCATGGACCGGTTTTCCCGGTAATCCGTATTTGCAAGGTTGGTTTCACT; site = the 11-nt target
value_kind: recombinant barcode read abundance (log10)
Answer with the value's number alone.

TAACACTCTTGGGTTCTAACCTGTTGCCT (site TCACAGTCTAG) ... 0.19
GCCCCATCTTGGGTTCTAACCTGTTGCCT (site GCCCCATCTAG) ... 0.601
GGTTAGCCTTGGGTTCTAACCTGTTGCCT (site TGTTAGCCTTG) ... 0.0783

Entry CAAGATGCTTGGGTTCTAACCTGTTGCCT (site CATGATGCTAG) has what recombinant barcode read abundance (log10)?
0.366

Entry GGATAGCCTTGGGTTCTAACCTGTTGCCT (site AGATAGCCTAG) has what recombinant barcode read abundance (log10)?
0.902

Entry AGGGCTTCTTGGGTTCTAACCTGTTGCTA (site AGGGCTTCTTA) has what recombinant barcode read abundance (log10)?
1.87

---

# run_description: recombinant barcode read abundance after kanamycin selection (control-corrected) (log10(CPM+1)); higher = more efficient recombination; sequences stand for … in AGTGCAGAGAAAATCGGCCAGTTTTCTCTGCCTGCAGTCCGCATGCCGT…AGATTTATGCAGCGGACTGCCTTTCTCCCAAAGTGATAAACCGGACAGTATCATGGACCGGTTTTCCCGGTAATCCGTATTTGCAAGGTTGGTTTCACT; site = the 11-nt target
Measured recombinant barcode read abundance (log10) accompanies every entry in the list below.

Example cases with answers are listed next.
AGCGCTTCTTGGGTTCTAACCTGTTGCCT (site AACGCTTCTAG) ... 0.241
CCGAAGACTTGGGTTCTAACCTGTTGCCT (site CCGAAGACTAG) ... 0.112
CCTCAGGCTTGGGTTCTAACCTGTTGCCC (site CCTCAGGCTTG) ... 0.399

Entry GTCTATACTTGGGTTCTAACCTGTTGCCA (site TTCTAGACTTG) has what recombinant barcode read abundance (log10)?
0.0838

Entry CCTCATTCTTGGGTTCTAACCTGTTGCTT (site CCTCAGTCTAA) has what recombinant barcode read abundance (log10)?
0.142

Entry AAGCATGCTTGGGTTCTAACCTGTTGCTA (site CTCTTAACTCC) has what recombinant barcode read abundance (log10)?
0.0074

Entry CAAAAGGCTTGGGTTCTAACCTGTTGCCG (site GTGTCCTCTAC) has what recombinant barcode read abundance (log10)?
0.239

Entry CGAGGTACTTGGGTTCTAACCTGTTGCAT (site CGAGATCCTAT) has what recombinant barcode read abundance (log10)?
0.0262

Entry AGTTGGGCTTGGGTTCTAACCTGTTGCTG (site AGCTGGGCTCC) has what recombinant barcode read abundance (log10)?
0.154

Entry TAGGCTACTTGGGTTCTAACCTGTTGCCA (site TAGGCTACTTG) has what recombinant barcode read abundance (log10)?
0.129

Entry GACACAACTTGGGTTCTAACCTGTTGCGG (site GACAAACCTCC) has what recombinant barcode read abundance (log10)?
0.0119

Entry ATTGGTTCTTGGGTTCTAACCTGTTGCCT (site ATTGGATCTAG) has what recombinant barcode read abundance (log10)?
0.114

Entry ATGCAATCTTGGGTTCTAACCTGTTGCCT (site ATGCAAACTAG) has what recombinant barcode read abundance (log10)?
0.104
